measuredQuantity: log10(Ki) (log10 of the value in nM)
Recall that a logarithmic scale is used here: each number is log10 of Ki in nM.

Report value: log10(Ki), system: Cannabinoid receptor 1 (Rattus norvegicus, UniProt P20272), compound: O=C(NN1CCCCC1)c1nn(-c2ccc(Cl)cc2Cl)c(-c2ccc(Cl)cc2)c1Br
Sequence (P20272 whole entry): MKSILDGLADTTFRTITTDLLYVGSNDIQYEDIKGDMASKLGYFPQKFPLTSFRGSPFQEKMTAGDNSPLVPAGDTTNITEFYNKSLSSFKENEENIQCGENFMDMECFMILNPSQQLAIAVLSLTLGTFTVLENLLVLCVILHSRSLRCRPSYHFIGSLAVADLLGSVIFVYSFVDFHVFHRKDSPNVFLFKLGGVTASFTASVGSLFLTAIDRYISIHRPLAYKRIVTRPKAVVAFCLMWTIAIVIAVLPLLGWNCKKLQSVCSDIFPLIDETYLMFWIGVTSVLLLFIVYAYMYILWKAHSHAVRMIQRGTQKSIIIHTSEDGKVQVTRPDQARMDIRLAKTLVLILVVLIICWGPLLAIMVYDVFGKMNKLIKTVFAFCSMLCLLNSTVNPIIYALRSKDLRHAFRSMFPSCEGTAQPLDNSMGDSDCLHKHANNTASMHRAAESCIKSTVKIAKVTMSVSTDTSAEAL
0.15

Enter measured log10(Ki), system Cannabinoid receptor 1 (Rattus norvegicus, UniProt P20272), for the compound shown: COc1ccc(-c2c(C)c(C(=O)NN3CCCCC3)nn2-c2ccccc2OC)cc1
2.64

// fetch log10(Ki); item: O=C(NN1CCCCC1)c1cc(-c2ccc(Cl)cc2)n(-c2ccc(Cl)cc2Cl)n1 ; system: Cannabinoid receptor 1 (Rattus norvegicus, UniProt P20272)
0.95

Report the value of log10(Ki) obtained on Cannabinoid receptor 1 (Rattus norvegicus, UniProt P20272) for COc1ccc(-c2c(C)c(C(=O)NN3CCCCC3)nn2-c2ccccc2F)cc1 .
1.58

State log10(Ki) (Cannabinoid receptor 1 (Rattus norvegicus, UniProt P20272)) of Cc1c(C(=O)NN2CCCCC2)nn(-c2ccc(Cl)cc2Cl)c1-c1ccc2c(c1)OCO2 .
0.85

Report its log10(Ki) with Cannabinoid receptor 1 (Rattus norvegicus, UniProt P20272) as the test system: Cc1c(C(=O)NN2CCCCC2)nn(-c2ccc(Cl)cc2Cl)c1-c1ccc(OC2CCCN2C(=O)OC(C)(C)C)cc1 (configuration not stated)
2.59

Quote Cannabinoid receptor 1 (Rattus norvegicus, UniProt P20272) log10(Ki) for entry COc1ccc(-c2c(Br)c(C(=O)NN3CCCCC3)nn2-c2ccccc2Cl)cc1 .
0.79

###

test: Partition coefficient (logD7.4); conditions: octanol/water, pH 7.4
measuredQuantity: logD
Give your answer as a number; write no unit.

Dear colleague, please send me the reported logD for O=C(NN1CCCCC1)c1cc(-c2ccc(Cl)cc2)n(-c2ccc(Cl)cc2Cl)n1 when you can.
5.14
